Source: patent US20160002204A1

- MEASURED TARGET: GLS1 (purified recombinant human GAC) (Homo sapiens)
- Sequence (O94925 55-598 isoform O94925-3 limits assumed): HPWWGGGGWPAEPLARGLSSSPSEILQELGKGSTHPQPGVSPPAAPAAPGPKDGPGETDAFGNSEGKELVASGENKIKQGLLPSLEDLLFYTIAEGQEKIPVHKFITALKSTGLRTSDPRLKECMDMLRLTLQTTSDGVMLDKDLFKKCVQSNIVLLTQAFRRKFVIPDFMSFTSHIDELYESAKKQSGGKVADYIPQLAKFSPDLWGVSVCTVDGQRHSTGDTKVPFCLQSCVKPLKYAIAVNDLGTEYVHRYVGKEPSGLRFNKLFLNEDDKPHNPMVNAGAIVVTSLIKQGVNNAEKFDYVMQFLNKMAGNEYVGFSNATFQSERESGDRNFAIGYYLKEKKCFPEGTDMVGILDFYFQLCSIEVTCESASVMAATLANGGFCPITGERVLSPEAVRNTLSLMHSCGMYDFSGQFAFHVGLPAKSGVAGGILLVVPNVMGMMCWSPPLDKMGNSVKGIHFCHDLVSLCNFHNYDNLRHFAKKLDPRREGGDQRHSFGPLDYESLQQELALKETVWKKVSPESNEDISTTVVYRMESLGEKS
- EXPERIMENT DESCRIPTION: GLS1 enzymatic activity assay (dual-coupled, Amplex UltraRed/resorufin)
MEASURED ATTRIBUTE: IC50

Worked cases, IC50 given:
| COMPOUND | RESULT |
| --- | --- |
| Cc1ccc(CNC(=O)c2nnc(CCCCn3ccc(NC(=O)Cc4ccccn4)cc3=O)s2)cn1 | 0.1 to 0.5 µM |
| CC1(C)CN(C(=O)C(=O)Nc2ccn(CCC(F)Cn3cc(C(=O)NCc4cccc(OC(F)(F)F)c4)nn3)c(=O)c2F)C1 (stereo not drawn) | < 0.1 µM |
| CC(=O)Nc1nnc(CCCCn2ccc(NC(=O)CC3CCCC3)c(F)c2=O)s1 | < 0.1 µM |
| Cc1ccc(CNC(=O)c2cn(CC(F)CCn3ccc(NC(=O)C(=O)N4CCCC4)c(F)c3=O)nn2)cn1 (stereo not drawn) | 0.5 to 5 µM |
| Cc1ccc(CNC(=O)c2cn(CC(F)CCn3ccc(NC(=O)CC4CCCC4)cc3=O)nn2)cn1 (stereo not drawn) | < 0.1 µM |

# input for lookup
What value of IC50 has been recorded for this entry: O=C(CC1CC1(F)F)Nc1ccn(CCCCn2cc(C(=O)NCc3cccc(OC(F)(F)F)c3)nn2)c(=O)c1 (stereo not drawn) < 0.1 µM
